# study.system: T1, human CD38 (human, UniProt P28907 43-300, limits assumed)
# T1 construct: Soluble analyte in SPR; the construct (limits, tags) is not described; also called huCD38
# method.notes: SPR (Biacore), mAb captured on anti-Fc CM5 chip, huCD38 injected; n = 3
Hi there, I'd appreciate the recorded kon for every entry that follows.

binder	property	result
mAb 5 (antibody, human IgG1, kappa, V domains shown, Humanized heavy and light chains with engineered Fc; also called anti-CD38 mAb 5; HEAVY CHAIN 5 / LIGHT CHAIN 2) VH: QVQLVQSGAEVAKPGASVKVSCKASGYTFTDYWMQWVRQAPGQGLEWIGTIYPGDGDTSYAQKFQGRVTMTADTSTSTVYMELSSLRSEDTAVYYCARGDYYGSNSLDYWGQGTLVTVSS VL: DIVMTQSPDSLAVSLGERATINCKSSQDVSTVLAWYQQKPGQSPRRLIYSASYRYIGVPDRFSGSGSGTDFTLTISSLQAEDVAVYYCQQHYSPPYTFGGGTKLEIKR	kon	2.78e+06 M⁻¹ s⁻¹

Would you mind listing kon for each of the following binders?
1. mAb 6 (antibody, human IgG1, kappa, V domains shown, Humanized heavy and light chains with engineered Fc; also called anti-CD38 mAb 6; HEAVY CHAIN 5 / LIGHT CHAIN 3) VH: QVQLVQSGAEVAKPGASVKVSCKASGYTFTDYWMQWVRQAPGQGLEWIGTIYPGDGDTSYAQKFQGRVTMTADTSTSTVYMELSSLRSEDTAVYYCARGDYYGSNSLDYWGQGTLVTVSS VL: DIVMTQSPDSLAVSLGERATINCKSSQDVSTVVAWYQQKPGQSPRRLIYSASYRYIGVPDRFSGSGSGTDFTFTISSLQAEDVAVYYCQQHYSPPYTFGGGTKLEIKR
2. mAb 8 (antibody, human IgG1, kappa, V domains shown, Humanized heavy and light chains with engineered Fc; also called anti-CD38 mAb 8; HEAVY CHAIN 6 / LIGHT CHAIN 3) VH: QVQLVQSGAEVAKPGASVKVSCKASGYTFTDYWMQWVKQRPGQGLEWIGTIYPGDGDTGYAQKFQGRVTMTADKSTSTVYMELSSLRSEDTAVYYCARGDYYGSNSLDYWGQGTLVTVSS VL: DIVMTQSPDSLAVSLGERATINCKSSQDVSTVVAWYQQKPGQSPRRLIYSASYRYIGVPDRFSGSGSGTDFTFTISSLQAEDVAVYYCQQHYSPPYTFGGGTKLEIKR
3. mAb 7 (antibody, human IgG1, kappa, V domains shown, Humanized heavy and light chains with engineered Fc; also called anti-CD38 mAb 7; HEAVY CHAIN 6 / LIGHT CHAIN 2) VH: QVQLVQSGAEVAKPGASVKVSCKASGYTFTDYWMQWVKQRPGQGLEWIGTIYPGDGDTGYAQKFQGRVTMTADKSTSTVYMELSSLRSEDTAVYYCARGDYYGSNSLDYWGQGTLVTVSS VL: DIVMTQSPDSLAVSLGERATINCKSSQDVSTVLAWYQQKPGQSPRRLIYSASYRYIGVPDRFSGSGSGTDFTLTISSLQAEDVAVYYCQQHYSPPYTFGGGTKLEIKR

["3.1e+06 M⁻¹ s⁻¹", "3.51e+06 M⁻¹ s⁻¹", "3.18e+06 M⁻¹ s⁻¹"]
